Listing of recorded EC50 by entry.
Tested on: A549
Assay: Cytotoxicity against human A549 cells after 72 hrs by MTT assay
Format: functional
Conditions: A549, 72 h, read-out: ED50 (the source's name)
Value expressed in nM; do not type the unit.

The following compounds have reported results that may help.
Problem: Identify the measured EC50 of `O=c1cc(NC2CCCCC2)cc(-c2ccccc2)o1` for A549.
Result: 9690

Problem: Identify the measured EC50 of `COc1ccc(Nc2cc(C3CCCC3)oc(=O)c2)cc1` for A549.
Result: 5420

Let's switch to this compound now.
Problem: Identify the measured EC50 of `Nc1cc(=O)oc2c1ccc1ccccc12` for A549.
Result: 110

---

System: SK-BR-3
Experiment: Cytotoxicity against human SKBR3 cells after 72 hrs by MTT assay
Assay type: functional
Conditions: SK-BR-3, 72 h, read-out: ED50 (the source's name)
Listing of recorded EC50 by entry.
Value expressed in nM; do not type the unit.

Problem: // query EC50 value for entry `COc1ccc(Nc2cc(-c3ccccc3)oc(=O)c2)cc1`
Result: 79

More entries:
Problem: // query EC50 value for entry `COc1ccc(Nc2cc(Cc3ccccc3)oc(=O)c2)cc1`
Result: 1340

Problem: // query EC50 value for entry `COc1ccc(Nc2cc(C3CCCCC3)oc(=O)c2)cc1`
Result: 5290

Problem: // query EC50 value for entry `Nc1cc(=O)oc2c1ccc1ccccc12`
Result: 130

---

Listing of recorded EC50 by entry.
Tested on: A549
Test: Cytotoxicity against human A549 cells after 72 hrs by MTT assay
Assay type: functional
Conditions: A549, 72 h, read-out: ED50 (the source's name)
Value expressed in nM; do not type the unit.

Problem: // query EC50 value for entry `COc1cccc(Nc2cc(-c3ccccc3)oc(=O)c2)c1`
Result: 630

Problem: // query EC50 value for entry `COc1ccc(Nc2cc(C3CCCCC3)oc(=O)c2)cc1`
Result: 4620

Problem: // query EC50 value for entry `O=c1cc(Nc2ccccc2)cc(-c2ccccc2)o1`
Result: 120

Problem: // query EC50 value for entry `COc1ccc(Nc2cc(-c3ccccc3)oc(=O)c2)cc1`
Result: 93

Problem: // query EC50 value for entry `COc1ccc(Nc2cc(-c3ccco3)oc(=O)c2)cc1`
Result: 1910

Problem: // query EC50 value for entry `O=c1cc(Nc2ccc(Br)cc2)cc(-c2ccccc2)o1`
Result: 310

Problem: // query EC50 value for entry `COc1ccc(Nc2cc(/C=C/c3ccccc3)oc(=O)c2)cc1`
Result: 110

Let's switch to this compound now.
Problem: // query EC50 value for entry `O=c1cc(NC2CCCCC2)cc(/C=C/c2ccccc2)o1`
Result: 1250
